assay: Clearance in human liver microsomes by LC-MS/MS analysis; assay type: ADME
# CLhep predicted listing for each entry below
Reply with just the number (in mL/min/kg).

structure notation	numeric value
Nc1cccc(-c2ccc3ncnc(N)c3c2)c1	14
Nc1cc(F)cc(-c2ccc3ncnc(N)c3n2)c1	15

Now, please, on to the next molecule.
Supply recorded CLhep predicted for "Nc1ncnc2ccc(-c3cccc(Cl)c3)nc12" here. 19

====

experiment: Metabolic stability in mouse liver microsomes assessed as compound remaining after 1 hr by LC-MS/MS analysis; assay type: ADME
Percent remaining at 1 h vs 80%: less than gives MET; not less than gives NOT MET.

structure notation	assigned category
Nc1ncnc2ccc(-c3cc(F)cc(NC(=O)CN4CCCC4)c3)cc12	MET
Nc1ncnc2ccc(-c3ccccc3)cc12	NOT MET
Nc1ncnc2ccc(-c3cccc(F)c3)nc12	NOT MET
Nc1ncnc2ccc(-c3ccccc3F)cc12	NOT MET
CN(C)CCNC(=O)c1cc(F)cc(-c2ccc3ncnc(N)c3n2)c1	MET

Please find the next compound below.
Please indicate whether the reported Percent remaining at 1 h of "Nc1ncnc2ccc(-c3cc(F)cc(F)c3)cc12" is strictly below 80%. MET
